All figures here come from patent US20110081315A1.

measured_on: NS3/NS4 complexes (Hepatitis C virus genotype 1a, UniProt P27958)
Sequence (P27958 1027-1657, one chain of several): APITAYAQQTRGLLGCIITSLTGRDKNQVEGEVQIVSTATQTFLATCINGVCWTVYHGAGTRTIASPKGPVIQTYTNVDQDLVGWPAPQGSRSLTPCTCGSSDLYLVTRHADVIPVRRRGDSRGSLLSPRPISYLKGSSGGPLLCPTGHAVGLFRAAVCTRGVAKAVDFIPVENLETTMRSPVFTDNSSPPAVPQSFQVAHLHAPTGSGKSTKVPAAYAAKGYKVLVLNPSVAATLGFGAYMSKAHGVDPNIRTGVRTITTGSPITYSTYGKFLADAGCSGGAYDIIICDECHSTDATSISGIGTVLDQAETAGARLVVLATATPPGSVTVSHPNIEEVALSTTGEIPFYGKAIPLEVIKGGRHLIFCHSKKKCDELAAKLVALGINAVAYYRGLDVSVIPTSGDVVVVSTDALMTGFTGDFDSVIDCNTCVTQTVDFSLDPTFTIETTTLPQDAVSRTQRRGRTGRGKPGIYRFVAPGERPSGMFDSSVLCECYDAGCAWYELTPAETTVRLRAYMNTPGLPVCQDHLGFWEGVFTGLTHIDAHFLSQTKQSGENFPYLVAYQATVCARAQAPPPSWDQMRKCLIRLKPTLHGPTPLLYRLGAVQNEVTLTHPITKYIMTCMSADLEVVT
procedure_text: NS3/NS4 inhibition assay (IC50)
Assay type: biochemical
experimental_setup: NS3/NS4 activity; 23° C., 25 μM NS4A peptide
pIC50: −log10 of the molar value.
measured_quantity: pIC50

1. CC(C)n1c(O[C@@H]2C[C@H]3C(=O)N[C@]4(C(=O)NS(=O)(=O)C5(C)CC5)C[C@H]4/C=C\CCCCC[C@H](NC(=O)OC(C)(C)C)C(=O)N3C2)nc2c(-c3nc(C4CC4)cs3)cccc21 = > 8.00
2. Cc1ccccc1-c1csc(-c2cccc3c2nc(O[C@@H]2C[C@H]4C(=O)N[C@]5(C(=O)NS(=O)(=O)C6(C)CC6)C[C@H]5/C=C\CCCCC[C@H](NC(=O)OC(C)(C)C)C(=O)N4C2)n3C(C)C)n1 = > 8.00
3. COc1ccc(Cc2csc(-c3cccc4c3nc(O[C@@H]3C[C@H]5C(=O)N[C@]6(C(=O)NS(=O)(=O)N(C)C)C[C@H]6/C=C\CCCCC[C@H](NC(=O)OC(C)(C)C)C(=O)N5C3)n4C(C)C)n2)cc1OC = > 8.00
4. COc1ccc2c(O[C@@H]3C[C@H]4C(=O)N[C@]5(C(=O)NS(=O)(=O)C6(C)CC6)C[C@H]5/C=C\CCCCC[C@H](Nc5cccc(C(=O)N6CCN(C(=O)c7ccccc7)CC6)c5)C(=O)N4C3)cc(-c3nc(C(C)C)cs3)nc2c1C = > 8.00

----------
Examples of compounds with documented pIC50 follow.
measured_on: NS3/NS4 complexes (Hepatitis C virus genotype 1a, UniProt P27958)
procedure_text: NS3/NS4 inhibition assay (IC50)
experimental_setup: NS3/NS4 activity; 23° C., 25 μM NS4A peptide
pIC50: −log10 of the molar value.
measured_quantity: pIC50

1) CC(C)n1c(O[C@@H]2C[C@H]3C(=O)N[C@]4(C(=O)NS(=O)(=O)N(C)C)C[C@H]4/C=C\CCCCC[C@H](NC(=O)OC(C)(C)C)C(=O)N3C2)nc2c(-c3ccccc3)cccc21 = > 8.00
2) CCc1nc2ccccc2nc1O[C@@H]1C[C@H]2C(=O)N[C@]3(C(=O)NS(=O)(=O)N(C)C)C[C@H]3/C=C\CCCCC[C@H](NC(=O)OC(C)(C)C)C(=O)N2C1 = > 8.00
3) COc1ccc2c(O[C@@H]3C[C@H]4C(=O)N[C@]5(C(=O)NS(=O)(=O)C6(C)CC6)C[C@H]5/C=C\CCCCC[C@H](Nc5cccc(C(=O)N6CCOC(C)C6)c5)C(=O)N4C3)cc(-c3nc(C(C)C)cs3)nc2c1C (stereo partly drawn) = > 8.00
